Experimental Protocol: gradient 5% acetonitrile 3 min, to 50% in 2 min, to 85% in 15 min, held 3 min, 100 µL/min
Condition Description: column: Zorbax Extend-C18 2.1 x 50 mm; eluents: water / acetonitrile, 0.1% formic acid
Recorded Endpoint: RP-LC retention time (s)
Express the result in s but write the number alone.

Inquiry: Supply measured RP-LC retention time of Cc1oc(-c2ccc(NC(=O)Cc3ccccc3Cl)cc2)nc1Cn1cccn1 in your reply.
Reply text: 899

Inquiry: State its RP-LC retention time: O=c1c2cnc3ncnn3c2ccn1C1CC1
Reply text: 583

Inquiry: Respond only with RP-LC retention time recorded for CC(=O)N(Cc1nn(C)c2c1CN(Cc1cn[nH]c1-c1cccs1)CC2)c1ccccc1
Reply text: 589

Inquiry: Read the entry Cc1cc(N2CCCCC2)n2nc(CN3CCC4(CC3)OCCO4)nc2n1 and write its reported RP-LC retention time.
Reply text: 580

Inquiry: For the molecule O=C1NC(C(=O)NCC2CC2)Cn2cccc21 (stereo not given) , give its measured RP-LC retention time value.
Reply text: 602
